MIC values for the compounds below.
Test system: Proteus rettgeri A21203
Assay: MIC, tube dilution, Proteus rettgeri A21203
Type: cell-based
Details: Providencia rettgeri; Proteus rettgeri A21203; overnight 37° C.; read-out: Minimum Inhibitory Concentration (M.I.C.)
Dear colleague, please return just the value in µg/mL, with no unit written.

# COMPOUND, ASSAY_TARGET, QUANTITY_UNIT, MIC
data = [
    ("CCOP(=O)(CCC1=C(C(=O)O)N2C(=O)CC2S1)OCC (centres unmarked) [Preparation 25]", "Proteus rettgeri A21203", "µg/mL", 32),
]

**Q:** Look at this compound and give its reported MIC. CON=C(C)CC1=C(C(=O)O)N2C(=O)CC2S1 (centres unmarked) [Example 44]
**A:** 125

**Q:** Same for CC(N)C1=C(C(=O)O)N2C(=O)CC2S1 (centres unmarked) [Example 72]
**A:** 125

###

MIC values for the molecules below.
System: Staph. aureus (Meth-Res) A-15097
Test: MIC, tube dilution, Staphylococcus aureus A15097 (Meth-Res)
Format: cell-based
Conditions: Staphylococcus aureus, Staph. aureus A15097 (Meth-Res); overnight 37° C.; read-out: Minimum Inhibitory Concentration (M.I.C.)
Dear colleague, please return just the value in µg/mL, with no unit written.

Consider the reported MIC for these molecules:
# MOLECULE, ASSAY_TARGET, MEASURED_PARAMETER, RECORDED_NUMBER
data = [
    ("CCCC(N)C1=C(C(=O)O)N2C(=O)CC2S1 (centres unmarked)", "Staph. aureus (Meth-Res) A-15097", "MIC", 4),
    ("CC1=C(C(=O)O)N2C(=O)C(C(C)(C)O)C2S1 (centres unmarked)", "Staph. aureus (Meth-Res) A-15097", "MIC", 32),
    ("O=C(O)C1=CSC2CC(=O)N12 (centres unmarked)", "Staph. aureus (Meth-Res) A-15097", "MIC", 63),
]

# ---- query molecule ----
**Q:** Record CC(N)C1=C(C(=O)O)N2C(=O)CC2S1 (centres unmarked) : what is its MIC with Staph. aureus (Meth-Res) A-15097?
**A:** 63

###

Test system: K. pneumoniae A-15130
MEASURED_PARAMETER: log10(MIC) (log10 of the value in µg/mL)
Field: value | Transform: log10 | Quantity: MIC | Unit: µg/mL

Consider the reported log10(MIC) for these molecules:
# MOLECULE, log10(MIC)
rows = [
    ("NCC[S+]([O-])CC1=C(C(=O)O)N2C(=O)C[C@H]2S1 (some centres unmarked) [Example 101]", 1.51),
    ("N=C(NCC1=C(C(=O)O)N2C(=O)CC2S1)c1ccccc1 (centres unmarked) [Example 108]", 2.10),
    ("Nc1ccccc1CC1=C(C(=O)O)N2C(=O)CC2S1 (centres unmarked) [Example 45]", 2.10),
]

**Q:** Look at this molecule and give its reported log10(MIC). N#CCCC(N)C1=C(C(=O)O)N2C(=O)C[C@H]2S1 (some centres unmarked) [Example 83]
**A:** 0.90

**Q:** Same for CC(C)(C)CC1=C(C(=O)O)N2C(=O)CC2S1 (centres unmarked) [Preparation 23]
**A:** 2.10

**Q:** Same for CC(N)=NCC1=C(C(=O)O)N2C(=O)CC2S1 (centres unmarked) [16 (5)]
**A:** 1.80

**Q:** Same for CC1=C(C(=O)O)N2C(=O)[C@@H]([C@H](C)O)[C@H]2S1 (relative stereo) [Example 61]
**A:** 0.90

**Q:** Same for O=C([O-])C1=C(CO)S[C@@H]2CC(=O)N12.[Na+] [Preparation 20]
**A:** 1.80

**Q:** Same for C[C@@H](O)[C@H]1C(=O)N2C(C(=O)O)=C(CCCCN)S[C@H]12 (relative stereo) [Example 64]
**A:** 0.60
